Test system: cytokinin-dependent tobacco callus Nicotiana tabacum L. cv. Wisconsin 38
Experiment: Cytokinin activity in tobacco callus bioassay
Type: cell-based
Experimental Parameters: increase of fresh callus weight at the concentration with highest activity; 10^−5 M BAP = 100%
So basically, if Activity (%) [10^−5 mol · l^−1 BAP = 100%] comes in under 40% it's TRUE, and if it's 40% or more it's FALSE.

Compound: Oc1coc(CNc2ncnc3c2ncn3C2CCCCO2)c1 (stereo not shown)
Label Value: FALSE

Compound: Oc1cccc(Nc2ncnc3c2ncn3C2CCCCO2)c1 (stereo not shown) [3-hydroxyanilino / tetrahydropyran-2-yl]
Label Value: FALSE

Compound: COc1ccc(CNc2ncnc3c2ncn3C2CCCCO2)c(O)c1 (stereo not shown)
Label Value: FALSE

Compound: COc1cc(Nc2ncnc3c2ncn3C2CCCCO2)cc(OC)c1O (stereo not shown)
Label Value: TRUE

Compound: Oc1cccc(CNc2ncnc3c2ncn3CCCCCl)c1 [3-hydroxybenzylamino / 4-chlorobutyl]
Label Value: FALSE

Compound: COc1cc(O)cc(OC)c1CNc1ncnc2c1ncn2C1CCCCO1 (stereo not shown)
Label Value: FALSE

Compound: Oc1ccc(O)c(CNc2ncnc3c2ncn3C2CCCCO2)c1 (stereo not shown)
Label Value: TRUE

Compound: COc1ccc(CNc2ncnc3c2ncn3C2CCCCO2)cc1O (stereo not shown)
Label Value: FALSE

Compound: Cc1ccc(O)c(CNc2ncnc3c2ncn3C2CCCCO2)c1 (stereo not shown)
Label Value: FALSE

Compound: C/C(=C\CNc1ncnc2nc[nH]c12)CO [reference compound]
Label Value: FALSE

Compound: Oc1ccccc1CNc1ncnc2c1ncn2C1CCCCO1 (stereo not shown)
Label Value: FALSE

Compound: COc1cc(O)cc(OC)c1CNc1ncnc2c1ncn2C1CCCO1 (stereo not shown)
Label Value: TRUE

Compound: CC(CO)CCNc1ncnc2[nH]cnc12 (stereo not shown) [4-hydroxy-3-methylbutylamino / H, reference compound]
Label Value: FALSE

Compound: c1ccc(CNc2ncnc3nc[nH]c23)cc1 [benzylamino / H, 6-benzylaminopurine, reference compound]
Label Value: FALSE

Compound: Cc1cc(CNc2ncnc3c2ncn3C2CCCCO2)ccc1O (stereo not shown) [4-hydroxy-5-methylbenzylamino / tetrahydropyran-2-yl]
Label Value: TRUE

Compound: Oc1ccc(CNc2ncnc3c2ncn3C2CCCCO2)cc1O (stereo not shown)
Label Value: FALSE

Compound: CC(CO)CCNc1ncnc2c1ncn2C1CCCO1 (stereo not shown)
Label Value: FALSE

Compound: COc1cc(CNc2ncnc3c2ncn3C2CCCO2)cc(OC)c1O (stereo not shown)
Label Value: TRUE

Compound: Oc1ccccc1CNc1ncnc2c1ncn2C1CCCO1 (stereo not shown)
Label Value: FALSE

Taken from patent US7960397B2.
